tested on: sicklepod (Cassia obtusifolia, CASOB); assay: Pre-emerge greenhouse herbicide test, phytotoxicity rating; format: in vivo; settings: Rate 125 g al/ha, 14 days after application, rating scale 0-100
recorded_endpoint: CASOB phytotoxicity rating
Numbers only.

CCOC(=O)C(C)Oc1ccc(Oc2cc(-n3c(=O)n4n(c3=S)CCCC4)c(F)cc2Cl)c(N)c1 (stereo not shown); 0
CSc1cccnc1Oc1cc(-n2c(=O)n3n(c2=S)CCCC3)c(F)cc1Cl; 20
Nn1c(C(F)(F)F)cc(=O)n(-c2cc(Oc3cccc(F)n3)c(Cl)cc2F)c1=O; 60

(Q) Fill in: CASOB phytotoxicity rating of O=c1n(-c2cc(Oc3ccccn3)c(Cl)cc2F)c(=S)n2n1CCCC2 is ___
(A) 100

* * *

test system: field corn (Zea mays L., var. Dekalb 535, CORN); assay: Pre-emerge greenhouse test, crop damage rating; type: in vivo; details: 500 g ai/ha, 14 days after application, rating scale 0-100
recorded_endpoint: crop damage rating CORN

Field: example entries. Status: answers known.
Cn1nc(-c2cc(Oc3ccc(C#N)cn3)c(Cl)cc2F)c(Cl)c1C(F)(F)F [Compound 1-4]; 0
CCOC(=O)C(C)Oc1ccc(Oc2cc(-n3c(=O)n4n(c3=S)CCCC4)c(F)cc2Cl)cc1 (stereo not shown) [Compound 8-11]; 0
O=c1n(CCCF)nnn1-c1cc(Oc2ncccc2C(F)(F)F)c(Cl)cc1F [Compound 6-6]; 0

For the next question, use this compound.
(Q) Give the measured crop damage rating CORN of N#Cc1cccnc1Oc1cc(-n2nnn(CCCF)c2=O)c(F)cc1Cl [Compound 6-4] .
(A) 10

* * *

test system: green foxtail (Setaria viridis, SETVI); assay: Post-emerge greenhouse herbicide test, phytotoxicity rating; type: in vivo; conditions: 1000 g al/ha, 14 days after application
Hi there, I'd appreciate the recorded SETVI phytotoxicity rating (0-100) for every entry that follows.

The examples below pair each entry with its known result.
O=c1cc2n(c(=O)n1-c1cc(Oc3ncccc3C(F)(F)F)c(Cl)cc1F)CCC2; 20
N#Cc1cccnc1Oc1cc(-n2c(=O)cc3n(c2=O)CCC3)c(F)cc1Cl; 10
Nc1ccc(Oc2cc(-n3c(=O)cc4n(c3=O)CCC4)c(F)cc2Cl)cc1; 0

Now turn to the next compound.
(Q) # get_value(readout='SETVI phytotoxicity rating (0-100)', item= O=c1cc2n(c(=O)n1-c1cc(Oc3ccc([N+](=O)[O-])cc3)c(Cl)cc1F)CCC2 )
(A) 10

* * *

tested on: field corn (Zea mays L., var. Dekalb 535, CORN); assay: Pre-emerge greenhouse test, crop damage rating; assay type: in vivo; settings: Rate 500 g al/ha, 14 days after application, rating scale 0-100
Provide the reported CORN crop damage rating of each item.
Numbers only.

These recorded examples may help you get a feel for the data.
CS(=O)(=O)c1cccnc1Oc1cc(-n2c(=O)n3n(c2=S)CCCC3)c(F)cc1Cl [Compound 8-21]; 10
O=c1n(-c2cc(Oc3cccc(Cl)n3)c(Cl)cc2F)c(=S)n2n1CCCC2 [Compound 8-26]; 0
O=c1n(-c2cc(Oc3nccc(C(F)(F)F)n3)c(Cl)cc2F)c(=S)n2n1CCCC2 [Compound 8-30]; 20
Cc1nsc(Oc2cc(-n3c(=O)n4n(c3=S)CCCC4)c(F)cc2Cl)c1[N+](=O)[O-] [Compound 8-35]; 30
O=c1n(-c2cc(Oc3nc(F)c(F)cc3F)c(Cl)cc2F)c(=S)n2n1CCCC2 [Compound 8-28]; 15

# batch size: 8; output CORN crop damage rating per entry
1. N#Cc1ccc(Oc2cc(-n3c(=O)n4n(c3=S)CCCC4)c(F)cc2Cl)nc1 [Compound 8-22]
2. Nn1c(C(F)(F)F)cc(=O)n(-c2cc(Oc3cccc(F)n3)c(Cl)cc2F)c1=O [Compound 9-4]
3. N#Cc1cccnc1Oc1cc(-n2c(=O)n3n(c2=S)CCCC3)c(F)cc1Cl [Compound 8-20]
4. O=c1n(-c2cc(Oc3cccc(F)n3)c(Cl)cc2F)c(=S)n2n1CCCC2 [Compound 8-25]
5. O=c1n(-c2cc(Oc3ccccn3)c(Cl)cc2F)c(=S)n2n1CCCC2 [Compound 8-17]
6. O=c1n(-c2cc(Oc3nc(Cl)ccc3C(F)(F)F)c(Cl)cc2F)c(=S)n2n1CCCC2 [Compound 8-27]
7. Nc1ccc(Oc2cc(-n3c(=O)n4n(c3=S)CCCC4)c(F)cc2Cl)nc1 [Compound 8-24]
8. COc1cc(Oc2cc(-n3c(=O)n4n(c3=S)CCCC4)c(F)cc2Cl)nc(OC)n1 [Compound 8-32]

(A)
1. 60
2. 95
3. 10
4. 40
5. 30
6. 0
7. 0
8. 10

Record CORN crop damage rating per entry; entries follow.
1. CC(C)S(=O)(=O)c1cccnc1Oc1cc(-n2c(=O)n3n(c2=S)CCCC3)c(F)cc1Cl [Compound 8-37]
2. COc1nc(OC)nc(Oc2cc(-n3c(=O)n4n(c3=S)CCCC4)c(F)cc2Cl)n1 [Compound 8-34]
3. Nn1c(C(F)(F)F)cc(=O)n(-c2cc(Oc3cccc(C(F)(F)F)c3)c(Cl)cc2F)c1=O [Compound 9-25]
4. O=c1n(-c2cc(Oc3ccc([N+](=O)[O-])cn3)c(Cl)cc2F)c(=S)n2n1CCCC2 [Compound 8-23]
5. O=c1n(-c2cc(Oc3ncccc3[N+](=O)[O-])c(Cl)cc2F)c(=S)n2n1CCCC2 [Compound 8-19]
6. COc1cc(OC)nc(Oc2cc(-n3c(=O)n4n(c3=S)CCCC4)c(F)cc2Cl)n1 [Compound 8-33]

(A)
[25, 5, 40, 0, 30, 0]

Batch: CORN crop damage rating for all items listed.
1. O=c1n(-c2cc(Oc3nccc(Cl)n3)c(Cl)cc2F)c(=S)n2n1CCCC2 [Compound 8-31]
2. CC(=O)Nc1ccc(Oc2cc(-n3c(=O)n4n(c3=S)CCCC4)c(F)cc2Cl)c(C(F)(F)F)c1 [Compound 8-16]

(A)
[0, 0]

* * *

system: large crabgrass (Digitaria sanguinalis, DIGSA); assay: Pre-emerge greenhouse herbicide test, phytotoxicity rating; type: in vivo; details: Rate 250 g al/ha, 14 days after application, rating scale 0-100
I'd be grateful if you could share measured DIGSA phytotoxicity rating for these entries.
One number for each entry.

Please review the entries below; each comes with its answer.
O=c1n(-c2cc(Oc3ncc([N+](=O)[O-])s3)c(Cl)cc2F)c(=S)n2n1CCCC2; 80
Nc1cccnc1Oc1cc(-n2c(=O)n3n(c2=S)CCCC3)c(F)cc1Cl; 0
CSc1cccnc1Oc1cc(-n2c(=O)n3n(c2=S)CCCC3)c(F)cc1Cl; 100

For each of the compounds below, state DIGSA phytotoxicity rating.
1. CCOC(=O)C(C)Oc1ccc(Oc2cc(-n3c(=O)n4n(c3=S)CCCC4)c(F)cc2Cl)c(N)c1 (stereo not shown)
2. CCOC(=O)C(C)Oc1ccc(Oc2cc(-n3c(=O)n4n(c3=S)CCCC4)c(F)cc2Cl)c([N+](=O)[O-])c1 (stereo not shown)
3. CCOC(=O)C(C)Oc1ccc(Oc2cc(-n3c(=O)n4n(c3=O)CCCC4)c(F)cc2Cl)c([N+](=O)[O-])c1 (stereo not shown)
4. CCOC(=O)C(C)Oc1cc([N+](=O)[O-])c(Oc2cc(-n3c(=O)n4n(c3=S)CCCC4)c(F)cc2Cl)cc1Cl (stereo not shown)

(A)
1. 0
2. 0
3. 0
4. 0

* * *

System: barnyardgrass (Echinochloa crusgalli, ECHCG)
Experiment: Post-emerge greenhouse herbicide test, phytotoxicity rating
Assay type: in vivo
Details: rate 63 g ai/ha, 14 days after application, scale 0-100
Experimental: A standard greenhouse herbicide activity screening system was used to evaluate the herbicidal efficacy and crop safety of these test compounds. […] At 14 days after application of the test materials, phytotoxicity ratings were recorded. […]
What phytotoxicity rating ECHCG was measured for each of the following?
One number for each entry.

COc1nc(OC)nc(Oc2cc(-n3c(=O)n4n(c3=S)CCCC4)c(F)cc2Cl)n1; 10
O=c1n(-c2cc(Oc3ncc([N+](=O)[O-])s3)c(Cl)cc2F)c(=S)n2n1CCCC2; 50
Nc1ccc(Oc2cc(-n3c(=O)n4n(c3=S)CCCC4)c(F)cc2Cl)nc1; 10
O=c1n(-c2cc(Oc3ncccc3[N+](=O)[O-])c(Cl)cc2F)c(=S)n2n1CCCC2; 50
O=c1n(-c2cc(Oc3nc(Cl)ccc3C(F)(F)F)c(Cl)cc2F)c(=S)n2n1CCCC2; 0
CCOC(=O)C(C)Oc1cc([N+](=O)[O-])c(Oc2cc(-n3c(=O)n4n(c3=S)CCCC4)c(F)cc2Cl)cc1Cl (stereo not drawn); 0
CCOC(=O)C(C)Oc1ccc(Oc2cc(-n3c(=O)n4n(c3=O)CCCC4)c(F)cc2Cl)c([N+](=O)[O-])c1 (stereo not drawn); 0
O=c1n(-c2cc(Oc3nc(F)c(F)cc3F)c(Cl)cc2F)c(=S)n2n1CCCC2; 10
O=c1n(-c2cc(Oc3nccc(Cl)n3)c(Cl)cc2F)c(=S)n2n1CCCC2; 0
COc1cc(Oc2cc(-n3c(=O)n4n(c3=S)CCCC4)c(F)cc2Cl)nc(OC)n1; 0

Dear colleague, could you please provide phytotoxicity rating ECHCG for the molecules listed below?
1. CCOC(=O)C(C)Oc1ccc(Oc2cc(-n3c(=O)n4n(c3=S)CCCC4)c(F)cc2Cl)c(N)c1 (stereo not drawn)
2. Nn1c(C(F)(F)F)cc(=O)n(-c2cc(Oc3cccc(C(F)(F)F)c3)c(Cl)cc2F)c1=O
3. Nn1c(C(F)(F)F)cc(=O)n(-c2cc(Oc3cccc(F)n3)c(Cl)cc2F)c1=O
4. CS(=O)(=O)c1cccnc1Oc1cc(-n2c(=O)n3n(c2=S)CCCC3)c(F)cc1Cl
5. CCOC(=O)C(C)Oc1ccc(Oc2cc(-n3c(=O)n4n(c3=S)CCCC4)c(F)cc2Cl)c([N+](=O)[O-])c1 (stereo not drawn)
6. Cc1nsc(Oc2cc(-n3c(=O)n4n(c3=S)CCCC4)c(F)cc2Cl)c1[N+](=O)[O-]
7. Nc1cccnc1Oc1cc(-n2c(=O)n3n(c2=S)CCCC3)c(F)cc1Cl

(A)
0
10
70
0
0
0
0

(Q) Fill blank: measured phytotoxicity rating ECHCG of the molecule N#Cc1cccnc1Oc1cc(-n2c(=O)n3n(c2=S)CCCC3)c(F)cc1Cl is ____.
(A) 20
